assay notes: Retention time of compound by RP-HPLC analysis
Format: physicochemical
readout: Retention_time (min)
Lab book: enter the figure in min, no units written.

> print(dat)
                substance         readout  readout.number
 1           H-LSKISG-NH2  Retention_time            9.94
 2    H-KLNEVELSKISGG-NH2  Retention_time           14.98
 3     H-IGPLVIPVAAIL-NH2  Retention_time           15.83
 4     H-MNKLNEVELSKI-NH2  Retention_time           11.81
 5      H-HADELVAGVKQ-NH2  Retention_time            9.41
 6       H-AGVKQGWERS-NH2  Retention_time            6.41
 7  H-LSKISGGIGPLVIPV-NH2  Retention_time           14.51
 8       H-DAWNHADELV-NH2  Retention_time           15.95
 9       H-KISGGIGPLV-NH2  Retention_time           17.32
10       H-SGGIGPLVIP-NH2  Retention_time           13.82

Here is another substance to look at.
*Q* Reported Retention_time, substance `H-LSKISGGIGP-NH2` : ____
*A* 13.63

###

Reported MIC values for the following compounds.
Test system: Enterococcus faecium
assay notes: Antibacterial activity against vancomycin resistant Enterococcus faecium BAA 2317 assessed as inhibition of bacterial growth incubated for 24 hrs by absorbance based microplate reader analysis
Format: functional
measurement parameters: read-out: MIC100
Square brackets hold non-standard residues; d marks the D form. Peptide text beside a SMILES is read from it.
Answer in µM, number only, no unit symbol.

Example entries and their recorded answers appear below.
compound	assay target	units text	MIC
O=C(O)c1cn(C2CC2)c2cc(N3CCNCC3)c(F)cc2c1=O [CIPROFLOXACIN]	Enterococcus faecium	µM	4
CC[C@H](C)[C@@H]1NC(=O)CNC(=O)CNC(=O)[C@H](CO)NC(=O)[C@H]([C@@H](C)CC)NC(=O)[C@H](CCCCN)NC(=O)[C@H](CO)NC(=O)[C@H](CC(C)C)NC(=O)[C@@H](C(C)C)NC(=O)[C@@H]2CCCN2C(=O)[C@H]([C@@H](C)CC)NC(=O)[C@H](C(C)C)NC(=O)[C@H](CC(C)C)NC(=O)[C@@H]2CCCN2C(=O)CNC1=O (cyclo(LSKISGGIGPLVIP[dV]))	Enterococcus faecium	µM	1.5
CC1(C)S[C@@H]2[C@H](NC(=O)[C@H](N)c3ccc(O)cc3)C(=O)N2[C@H]1C(=O)O [AMOXICILLIN]	Enterococcus faecium	µM	35

// switching to the query compound
*Q* Can you share its MIC? I mean this compound: CCc1c(Cl)c(O)c(Cl)c(O)c1C(=O)O[C@H]1[C@H](O)[C@H](OC)[C@H](OC/C2=C\C=C\C[C@H](O)/C(C)=C/[C@H](CC)[C@@H](O[C@@H]3OC(C)(C)[C@@H](OC(=O)C(C)C)[C@H](O)[C@@H]3O)/C(C)=C/C(C)=C/C[C@@H]([C@@H](C)O)OC2=O)O[C@@H]1C [FIDAXOMICIN]
*A* 2

Where do these numbers come from? They come from ChEMBL document CHEMBL6177914.
